# Test target: BR449 nitrile hydratase (Bacillus sp. BR449, UniProt Q9L541+Q9L542)
# Construct: alpha 214 aa, beta 229 aa
# Sequence (Q9L541 1-214): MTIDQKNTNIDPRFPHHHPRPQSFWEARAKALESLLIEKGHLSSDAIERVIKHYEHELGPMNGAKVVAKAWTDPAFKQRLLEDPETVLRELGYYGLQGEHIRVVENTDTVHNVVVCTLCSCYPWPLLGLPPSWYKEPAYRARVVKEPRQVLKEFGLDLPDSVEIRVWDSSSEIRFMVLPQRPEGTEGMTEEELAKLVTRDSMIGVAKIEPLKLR
# Sequence (Q9L542 1-229): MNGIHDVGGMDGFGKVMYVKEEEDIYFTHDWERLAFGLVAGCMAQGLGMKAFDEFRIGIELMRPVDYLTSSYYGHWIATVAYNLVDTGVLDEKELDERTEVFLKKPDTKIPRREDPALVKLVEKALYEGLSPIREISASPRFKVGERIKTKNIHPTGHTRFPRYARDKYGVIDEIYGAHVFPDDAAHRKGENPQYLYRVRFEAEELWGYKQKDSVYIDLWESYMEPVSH
# Assay details: Effect of additions during growth on nitrile hydratase activity of BR449
# Assay type: cell-based
# Run conditions: BR449 grown with divalent metal salt 20 mg/l

{"columns": ["Compound", "Nitrile hydratase Specific Activity"],
 "data": [
  ["[Cu+2] [Cu^2+]", "1.9 U/mg"],
  ["[Mn+2] [Mn^2+]", "2.2 U/mg"],
  ["[Ni+2] [Ni^2+]", "6.8 U/mg"],
  ["[Co+2] [Co^2+]", "71.5 U/mg"],
  ["[Fe+2] [Fe^2+]", "4.3 U/mg"]
]}
